Origin of values: patent US20240075139A1

target: EBOV Mayinga (GenBank: NC_002549) (Zaire Ebolavirus (EBOV Mayinga)) (UniProt Q05320); experiment: cell-based or functional assay
Each entry gets criterion not met if its neutralization concentration (GMC, CPE reduction on Vero C1008 cells) stays under 1 µg/mL, and criterion met if its neutralization concentration (GMC, CPE reduction on Vero C1008 cells) is 1 µg/mL or above.

- Binder: "3T0338 (antibody, V domains shown) VH: EVQLVESGGALVKPGGSLRLSCAASGFSFKTAWMNWVRQAPGKGLEWVGRIKSRADGGTSDYSASVKGRFTFSRDDSKNTLYLQMTSLKTEDTGMYYCTTLNLGGGFPGEWRSVWGQGTTVTVSS VL: QSVLTQPPSVSGAPGQRVTISCTGSYSNIGSGYDVLWYQQLPGAAPKLLIYGNNNRPSGVPDRFSGSKSGTSASLAITELQAEDEGDYYCQSYDSRLRDSWVFGGGTRLTVL"
  Class label: "criterion met"
- Binder: "3T0123 (antibody, V domains shown) VH: QVQLVQSGSEVKKPGASVKVSCQASGYRFANYGISWVRQAPGQGLEWMGWISPLKRDPDYAQNFQGRVTMSRDTSTNTAYMELRGLTSGDTAVYFCARGLGDSYSNAWFVYVFDYWGQGSPVTVSS VL: EIVMTQSPATLSVSPGERVTLSCRTSQRIHTNLAWYQQKSGQAPRLVMYDAFTRAPGVPARFSGGGSETEFTLTISSLQSEDFALYYCQQYSQRPTFGLGTKLEIK"
  Class label: "criterion not met"
- Binder: "1T0201 (antibody, V domains shown) VH: EVQLVESGGGLVKPGGSLRLSCAAAGFSFSKAWMNWVRQAPGKGLEWVGRIKSKTDGGTTDYTAPVKGRFIISRDDSKNMLYLQMNSLKAEDTAVYWCTTRVDMEWGKYGTDVWGQGTTVTVSS VL: QSVLTQPPSVSGAPGQRVTISCTGSSSNIGAGYDVHWYQKLPGTAPKLLIYDKNIRPSGVPDRFSGSKSGVSASLAITGLQAEDEADYYCQSYDSRLSDSWVFGGGTKLTVL"
  Class label: "criterion met"
- Binder: "5T0376 (antibody, V domains shown) VH: QVQLQESGPGLVKPSETLSLTCSVSGASISTLYWSWIRQPPGKGLEWIGYMHSSGTTNYNPSLESRVTMSIDTSRNQFSLKLTSVTAADTAVYYCARGLLGPGDSWGQGTLVTVSS VL: QSALTQPASVSGSPGQSITISCTGTSSDVGGYNYVSWYQQYPGKAPKLMIYEVTSRPSGVSNRFSGSKSGNTASLTISGLQAEDEGDYYCSSYKTGSTPVVFGGGTKLTVL"
  Class label: "criterion met"

Is neutralization concentration (GMC, CPE reduction on Vero C1008 cells) at least 1 µg/mL? Consider 4T0306 (antibody, V domains shown) VH: QVQLQQSGPGLVRPSQTLSLICAISGDSVSDNNAAWNWIRQSPSRGLEWLGRTYFRSRWYNDYPESLKGRVIINPDTAENQVSLQLSSVTPGDTAVYYCVREYYDLWNGFYPGGAMDVWGQGTTVTVSS VL: DIQLTQSPSSLSASVGDRVTITCRASQDISDFLNWFQQKPGKAPKLLIYDVSKLARGVPSRFSGSASGTDFTFTISSLQPEDIATYYCQQYDDLPRTFGQGTKLEIK criterion met
